Source of measurements: the Human Domainome abundance scans (Beltran et al. 2025)

B1: SAM and SH3 domain-containing protein 1, residues 630 to 700; numbered along this chain, O94885 (parent)
chain: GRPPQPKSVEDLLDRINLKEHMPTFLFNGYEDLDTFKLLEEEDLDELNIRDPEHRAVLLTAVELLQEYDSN

variants of: B1; test: abundance fitness (aPCA) (normalised: wild type 0, dead -1); higher = more abundant; growth selection in yeast, the domain comes from the species named; conditions: Homo sapiens
Classify by abundance fitness. Ranges: Low (below -0.8), Mid (-0.8 to below -0.4), High (-0.4 or more)

[
  {
    "INPUT_SEQUENCE": "GRPQQPKSVEDLLDRINLKEHMPTFLFNGYEDLDTFKLLEEEDLDELNIRDPEHRAVLLTAVELLQEYDSN",
    "ANSWER_LABEL": "High"
  },
  {
    "INPUT_SEQUENCE": "GRPPQPKSVEDLLDRINLKEHMPTFLFNGYEDLDTFQLLEEEDLDELNIRDPEHRAVLLTAVELLQEYDSN",
    "ANSWER_LABEL": "Mid"
  },
  {
    "INPUT_SEQUENCE": "GRPPQPKSVEDLLDRINLKEHMPTFLFNGYEDLDTFKLLEEEDLDELNIRDPEHRAVLLTAVELLPEYDSN",
    "ANSWER_LABEL": "Mid"
  }
]

State the band of GRPPQPKSVEDLLDRINLKEHMPTFLFNGYEDLMTFKLLEEEDLDELNIRDPEHRAVLLTAVELLQEYDSN
Mid

State the band of GRPPQPKSVEDLLDRINLKEHMPTFLFNGYEDLDTFKLLEEEYLDELNIRDPEHRAVLLTAVELLQEYDSN
Low

State the band of GRPPQPKSVEDLLDRINLKEHMPTFLFNGYEDLDTFKLLEEEDLDELNIRDPEHYAVLLTAVELLQEYDSN
Low

State the band of GKPPQPKSVEDLLDRINLKEHMPTFLFNGYEDLDTFKLLEEEDLDELNIRDPEHRAVLLTAVELLQEYDSN
High

State the band of GRPPQPKHVEDLLDRINLKEHMPTFLFNGYEDLDTFKLLEEEDLDELNIRDPEHRAVLLTAVELLQEYDSN
Low

State the band of GRPPQPKSVEDLLDRINLKEHMPTFLFNGYEDLDTFKLLEEEDLDELNPRDPEHRAVLLTAVELLQEYDSN
Low

State the band of GRPPQPKSVEDLLDRINLKEHMPTFLFNGYEDLDTFKLLEEEDLDELLIRDPEHRAVLLTAVELLQEYDSN
Mid

State the band of GRPPHPKSVEDLLDRINLKEHMPTFLFNGYEDLDTFKLLEEEDLDELNIRDPEHRAVLLTAVELLQEYDSN
High

State the band of GRPPQPKSVEDLLDRINLKEHMPTFLFNGYEDLDTFMLLEEEDLDELNIRDPEHRAVLLTAVELLQEYDSN
High

State the band of GRPPQPKSVEDLLDRINLKEHMPTFLFLGYEDLDTFKLLEEEDLDELNIRDPEHRAVLLTAVELLQEYDSN
Low

State the band of GRPPQPKSVEDLLDRINLKEHMPTFLFNGYEDLDGFKLLEEEDLDELNIRDPEHRAVLLTAVELLQEYDSN
Mid

State the band of GRPPQPKSVEDLLDRINLKEHMPTFLFNGYEDLDTFKLLEEEDLDELNIRDPEHCAVLLTAVELLQEYDSN
Low

State the band of GRPPQPKSVEDLLDRINLKEHMPTFSFNGYEDLDTFKLLEEEDLDELNIRDPEHRAVLLTAVELLQEYDSN
High

State the band of GRPPQPKSVEDLLDRTNLKEHMPTFLFNGYEDLDTFKLLEEEDLDELNIRDPEHRAVLLTAVELLQEYDSN
Mid

State the band of GRPPQPKSVEDLLDRINLKEHMDTFLFNGYEDLDTFKLLEEEDLDELNIRDPEHRAVLLTAVELLQEYDSN
High

State the band of GRPPQPKSVEDLLDRINLKEHPPTFLFNGYEDLDTFKLLEEEDLDELNIRDPEHRAVLLTAVELLQEYDSN
Low

State the band of GRPPQPKSVEQLLDRINLKEHMPTFLFNGYEDLDTFKLLEEEDLDELNIRDPEHRAVLLTAVELLQEYDSN
High
